# credit: patent US10562891B2

Reported pIC50 is given for each of the following molecules.
Biological target: catalytic domain of human PARP14 (Homo sapiens (Human), UniProt Q460N5)
Sequence (Q460N5 1611-1801): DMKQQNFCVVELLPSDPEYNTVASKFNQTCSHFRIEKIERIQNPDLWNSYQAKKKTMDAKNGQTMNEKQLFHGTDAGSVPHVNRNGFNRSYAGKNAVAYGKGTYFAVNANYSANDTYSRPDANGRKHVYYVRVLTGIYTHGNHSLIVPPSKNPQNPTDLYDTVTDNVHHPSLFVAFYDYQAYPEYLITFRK
Assay: Enzymatic assay for inhibition of PARP14 (DELFIA, auto-modification with biotin-NAD)
Settings: auto-modification of PARP14 by biotin-NAD, 50 nM PARP14, 3 μM biotin-NAD
pIC50: −log10 of the molar value. Structures can show the parent of a compound that is named as a salt.

[
  {
    "molecule": "Cc1cccc2c(=O)[nH]c(CS[C@H]3CC[C@H](CN)CC3)nc12 [Example 66, Trifluoroacetate]",
    "pIC50": "> 6.00"
  },
  {
    "molecule": "Cc1cccc2c(=O)[nH]c(CSC3CCN(Cc4ccccc4OCC#N)CC3)nc12 [Example 155, trifluoroacetate]",
    "pIC50": "> 6.00"
  },
  {
    "molecule": "O=c1[nH]c(CSC2CCOCC2)nc2nc(NC3CCCC3)ccc12",
    "pIC50": "> 6.00"
  },
  {
    "molecule": "CC(=O)NC[C@H]1CC[C@H](SCc2nc3c(C)cccc3c(=O)[nH]2)CC1",
    "pIC50": "5.00 to 6.00"
  },
  {
    "molecule": "NC[C@]1(F)CC[C@@H](SCc2nc3cc(OCC4CCC4)cc(F)c3c(=O)[nH]2)CC1",
    "pIC50": "5.00 to 6.00"
  },
  {
    "molecule": "CO[C@H]1CC[C@H](SCc2nc3cc(OCC4CCOCC4)cc(F)c3c(=O)[nH]2)CC1",
    "pIC50": "> 6.00"
  },
  {
    "molecule": "CO[C@H]1C[C@H](Nc2cc3nc(CSC4CCOCC4)[nH]c(=O)c3c(F)c2F)C1",
    "pIC50": "> 6.00"
  },
  {
    "molecule": "O=c1[nH]c(CSC2CCOCC2)nc2cc(NC3CCCNC3)ccc12 (stereo not shown)",
    "pIC50": "< 5.00"
  },
  {
    "molecule": "CC(=O)Nc1cccc(CN2CCC(SCc3nc4c(C)cccc4c(=O)[nH]3)CC2)c1 [Example 150, trifluoroacetate]",
    "pIC50": "5.00 to 6.00"
  },
  {
    "molecule": "CS(=O)(=O)N1CCC[C@@H](Nc2ccc3c(=O)[nH]c(CSC4CCOCC4)nc3c2)C1",
    "pIC50": "> 6.00"
  }
]

[in] Input `O=c1[nH]c(CS[C@H]2CC[C@@H](O)CC2)nc2cc(Nc3ccccc3)ccc12` , output reported pIC50.
[out] 5.00 to 6.00

[in] Input `C[C@]1(O)CC[C@@H](SCc2nc3cc(OCC4CCOCC4)cc(F)c3c(=O)[nH]2)CC1` , output reported pIC50.
[out] > 6.00

[in] Input `C[C@]1(O)C[C@H](COc2cc(F)c3c(=O)[nH]c(CSC4CCOCC4)nc3c2)C1` , output reported pIC50.
[out] > 6.00

[in] Input CC1(C)CC(COc2cc(F)c3c(=O)[nH]c(CS[C@H]4CC[C@H](O)CC4)nc3c2)CO1 (stereo partly shown) , output reported pIC50.
[out] > 6.00

[in] Input `COC(=O)N1CCC(SCc2nc3cc(NC4CCCC4)ccc3c(=O)[nH]2)CC1` , output reported pIC50.
[out] > 6.00

[in] Input `CS(=O)(=O)N1CCC[C@@H](Nc2cc(F)c3c(=O)[nH]c(CS[C@H]4CC[C@H](O)CC4)nc3c2)C1` , output reported pIC50.
[out] > 6.00

====

Biological target: catalytic domain of human PARP14 (Homo sapiens (Human))
Test: Enzymatic assay for inhibition of PARP14 (DELFIA, auto-modification with biotin-NAD)
Conditions: auto-modification of PARP14 by biotin-NAD, 50 nM PARP14, 3 μM biotin-NAD
pIC50: −log10 of the molar value.
metricName: pIC50

[
  {
    "compound": "O=c1[nH]c(CS[C@H]2CC[C@H](O)CC2)nc2cc(OCC3CCOC3)cc(F)c12 (some centres unmarked) [Example 324]",
    "testValue": "> 6.00"
  }
]

[in] Input O=c1[nH]c(CSC2CCOCC2)nc2cc(OC[C@H]3CNC[C@H]3F)cc(F)c12 (relative stereo) [Example 371] , output reported pIC50.
[out] > 6.00

[in] Input O=c1[nH]c(CSC2CCOCC2)nc2cc(OCC3CCCO3)cc(F)c12 (centres unmarked) [Example 320] , output reported pIC50.
[out] > 6.00

[in] Input O=c1[nH]c(CSC2CCOCC2)nc2cc(NC3CC3)ccc12 [Example 124] , output reported pIC50.
[out] > 6.00

[in] Input O=c1[nH]c(CS[C@H]2CC[C@H](O)CC2)nc2cc(N[C@@H]3CCC[C@@H]3F)cc(F)c12 (relative stereo) [Example 341] , output reported pIC50.
[out] > 6.00

[in] Input CC(=O)N1CCC(COc2cc(F)c3c(=O)[nH]c(CS[C@H]4CC[C@@](C)(O)CC4)nc3c2)CC1 [Example 417] , output reported pIC50.
[out] > 6.00

====

Target: catalytic domain of human PARP14 (Homo sapiens (Human))
Test: Enzymatic assay for inhibition of PARP14 (DELFIA, auto-modification with biotin-NAD)
Settings: auto-modification of PARP14 by biotin-NAD, 50 nM PARP14, 3 μM biotin-NAD
Description: An N-terminal His-TEV fusion tag was used to purify the protein from cell lysates. The His-TEV tag was left on the protein for use in the enzymatic assay. Enzymatic inhibition of PARP14 was measured using a dissociation-enhanced lanthanide fluorescence immunoassay (DELFIA) monitoring the auto-modification of PARP14 by biotinylated nicotinamide adenine dinucleotide (biotin-NAD). […]
metricName: IC50

[
  {
    "compound": "O=c1[nH]c(CSC2CCOCC2)nc2cc(Nc3ccncc3)ccc12",
    "targetOrTestSystem": "catalytic domain of human PARP14 (Homo sapiens (Human))",
    "testValue": "1 to 10 µM"
  },
  {
    "compound": "Cc1cccc2c(=O)[nH]c(CSC3CCN(Cc4nccn4C)CC3)nc12 [Example 138, bistrifluoroacetate]",
    "targetOrTestSystem": "catalytic domain of human PARP14 (Homo sapiens (Human))",
    "testValue": "< 1 µM"
  },
  {
    "compound": "CC(C)(C)COc1cc(F)c2c(=O)[nH]c(CSC3CCOCC3)nc2c1",
    "targetOrTestSystem": "catalytic domain of human PARP14 (Homo sapiens (Human))",
    "testValue": "< 1 µM"
  }
]

Okay, next one:
[in] Provide IC50, tested on catalytic domain of human PARP14 (Homo sapiens (Human)), for `COc1cccc(Nc2ccc3c(=O)[nH]c(CSC4CCOCC4)nc3c2)c1` .
[out] 1 to 10 µM

====

Reported IC50 is given for each of the following compounds.
Target: catalytic domain of human PARP14 (Homo sapiens (Human), UniProt Q460N5)
Experiment: Enzymatic assay for inhibition of PARP14 (DELFIA, auto-modification with biotin-NAD)
Settings: auto-modification of PARP14 by biotin-NAD, 50 nM PARP14, 3 μM biotin-NAD
Structures can show the parent of a compound that is named as a salt.

Consider the reported IC50 for these compounds:
[
  {
    "compound": "O=c1[nH]c(CS[C@H]2CC[C@H](O)CC2)nc2cc(NCC3CC3)cc(F)c12",
    "IC50": "< 1000 nM"
  },
  {
    "compound": "Cc1cccc2c(=O)[nH]c(CSC3CCNCC3)nc12 [Example 13, Trifluoroacetate]",
    "IC50": "< 1000 nM"
  },
  {
    "compound": "CC(=O)N1CCC(Nc2ccc3c(=O)[nH]c(CSC4CCOCC4)nc3c2)CC1",
    "IC50": "1000 to 10000 nM"
  },
  {
    "compound": "CC(=O)N[C@H]1CC[C@@H](SCc2nc3cc(OCC4CC4)cc(F)c3c(=O)[nH]2)CC1",
    "IC50": "< 1000 nM"
  },
  {
    "compound": "Cc1cccc2c(=O)[nH]c(CSC3CCN(C(=O)[C@H](N)CCCCN)CC3)nc12 [Example 172, Dihydrochloride]",
    "IC50": "< 1000 nM"
  },
  {
    "compound": "O=c1[nH]c(CSC2CCOCC2)nc2cc(NC3CCCCC3)ccc12",
    "IC50": "< 1000 nM"
  },
  {
    "compound": "Cc1cc(Nc2ccc3c(=O)[nH]c(CSC4CCOCC4)nc3c2)on1",
    "IC50": "< 1000 nM"
  },
  {
    "compound": "CCC(=O)N1CCC(COc2cc(F)c3c(=O)[nH]c(CSC4CCOCC4)nc3c2)CC1",
    "IC50": "< 1000 nM"
  },
  {
    "compound": "O=c1[nH]c(CS[C@@H]2CCNC[C@@H]2F)nc2cc(NC3CCCC3)cc(F)c12 [Example 213b]",
    "IC50": "< 1000 nM"
  },
  {
    "compound": "O=c1[nH]c(CS[C@H]2CC[C@H](O)CC2)nc2cc(NC3CCCC3(F)F)cc(F)c12 (stereo partly drawn)",
    "IC50": "< 1000 nM"
  }
]

[in] Input `O=c1[nH]c(CSC2CCOCC2)nc2cc(NC3CCCC3)cc(CF)c12` , output reported IC50.
[out] > 10000 nM

[in] Input Cc1cccc2c(=O)[nH]c(CSC3CCN(Cc4nn(C)c5ccccc45)CC3)nc12 [Example 143, trifluoroacetate] , output reported IC50.
[out] 1000 to 10000 nM

[in] Input `O=c1[nH]c(CSC2CCNCC2)nc2cc(OCC3CC3)cc(F)c12` , output reported IC50.
[out] < 1000 nM

[in] Input CN1CC[C@H](COc2cc(F)c3c(=O)[nH]c(CSC4CCOCC4)nc3c2)[C@@H](F)C1 (relative stereo) , output reported IC50.
[out] < 1000 nM

[in] Input `O=C(CO)N1CCC(SCc2nc3cc(OCC4CCC4)cc(F)c3c(=O)[nH]2)CC1` , output reported IC50.
[out] < 1000 nM

[in] Input CC(Oc1cc(F)c2c(=O)[nH]c(CSC3CCOCC3)nc2c1)C1CCCC1 (stereo not drawn) , output reported IC50.
[out] < 1000 nM

[in] Input `O=c1[nH]c(CSC2CCOCC2)nc2cc(NCCN3CCOCC3)cc(F)c12` , output reported IC50.
[out] < 1000 nM

[in] Input `CO[C@H]1C[C@@H](Nc2cc3nc(CS[C@H]4CC[C@](C)(O)CC4)[nH]c(=O)c3c(F)c2F)C1` , output reported IC50.
[out] < 1000 nM

[in] Input `O=c1[nH]c(CSC2CCS(=O)(=O)CC2)nc2cc(NCC3CCC3)c(F)c(F)c12` , output reported IC50.
[out] < 1000 nM

[in] Input `Cc1ccc(F)c2c(=O)[nH]c(CS[C@H]3CC[C@@H](O)CC3)nc12` , output reported IC50.
[out] < 1000 nM

[in] Input O=c1[nH]c(CSC2CCC(O)CC2)nc2cc(Nc3ccccc3)ccc12 (stereo not drawn) , output reported IC50.
[out] 1000 to 10000 nM

[in] Input Cc1cccc2c(=O)[nH]c(CSC3CCN(Cc4cc[nH]n4)CC3)nc12 [Example 142, trifluoroacetate] , output reported IC50.
[out] < 1000 nM

[in] Input `O=c1[nH]c(CSC2CCNCC2)nc2cc(NC3CCCC3)ccc12` , output reported IC50.
[out] < 1000 nM

[in] Input `O=c1[nH]c(CSC2CCOCC2)nc2cc(NC3CCCC3)cnc12` , output reported IC50.
[out] > 10000 nM

[in] Input Cc1cccc2c(=O)[nH]c(CS[C@H]3CCC[C@@H](N)CC3)nc12 (relative stereo) [Example 55, Trifluoroacetate] , output reported IC50.
[out] 1000 to 10000 nM

[in] Input `COC(C)(C)CNc1cc2nc(CSC3CCOCC3)[nH]c(=O)c2c(F)c1F` , output reported IC50.
[out] 1000 to 10000 nM

[in] Input O=c1[nH]c(CSC2CCOCC2)nc2cc(OC[C@H]3CCOC3)cc(F)c12 [Example 239b] , output reported IC50.
[out] < 1000 nM

[in] Input `O=c1[nH]c(CSC2CCOCC2)nc2cc(OCC3CCOCC3)c(F)c(F)c12` , output reported IC50.
[out] < 1000 nM

[in] Input `CS(=O)(=O)N1CCC[C@@H](Nc2ccc3c(=O)[nH]c(CSC4CCOCC4)nc3n2)C1` , output reported IC50.
[out] < 1000 nM
